- System: Staphylococcus aureus
- test: Antimicrobial activity against Staphylococcus aureus MTCC 96 assessed as diameter of growth inhibition zone after 24 hr by paper disk diffusion technique; further: test concentration or dose not given here
- Format: functional
test-readout: diameter of the inhibition zone (DIZ) (mm)
Numbers only, in mm.

Look over these answered cases.
Cc1ccc(N2C(=O)CSC2c2cc3ccccc3nc2Cl)cc1 (stereo not drawn)    19
O=C1C(Cl)C(c2cc3ccccc3nc2Cl)N1c1ccccc1[N+](=O)[O-] (stereo not drawn)    20
O=C1CSC(c2cc3ccccc3nc2Cl)N1c1ccccc1Cl (stereo not drawn)    21

Provide each entry's diameter of the inhibition zone (DIZ) from the list below.
1. Cc1cnc(N2C(=O)C(Cl)C2c2cc3ccccc3nc2Cl)s1 (stereo not drawn)
2. O=C1CSC(c2cc3ccccc3nc2Cl)N1c1ccc([N+](=O)[O-])cc1 (stereo not drawn)
3. O=C1C(Cl)C(c2cc3ccccc3nc2Cl)N1c1ccc([N+](=O)[O-])cc1 (stereo not drawn)
4. O=C1C(Cl)C(c2cc3ccccc3nc2Cl)N1c1ccc(F)cc1 (stereo not drawn)
5. O=C1C(Cl)C(c2cc3ccccc3nc2Cl)N1c1cccc([N+](=O)[O-])c1 (stereo not drawn)

[23, 26, 25, 23, 25]
